Data credit: the supplement of paper PMC8728848

- target.entity: Fuc(a1-2)[Gal(a1-3)]Gal(b1-4)Glc
- method.description: glycan array binding signal (z-score within array); higher = stronger binding
- experimental.context: glycan notation: IUPAC condensed, linker removed
Only a selection was taken, and the strongest signals are over-represented in it overall.
Is glycan array binding signal (z-score) at least -0.02? Then true. If not, false.

>>> label_class("BDCA2 ex-domain (Homo sapiens) (protein) MASHHHHHHIEGRGLNDIFEAQKIEWHESLVPRGSCPTPWTSFQSSCYFISTGMQSWTKSQKNCSVMGADLVVINTREEQDFIIQNLKRNSSYFLGLSDPGGRRHWQWVDQTPYNENVTFWHSGEPNNLDERCAIINFRSSEEWGWNDIHCHVPQKSICKMKKIY")
"false"
>>> label_class("Mcg Light Chain Dimer (Homo sapiens), Q6PIK1 (protein) MAGFPLLLTLLTHCAGSWGQSLLTQPPSVSGTPGQRVTISCSGSSSNIGINYVYWYQQIPGTAPKLLISTNDQRPSGVPDRFSGSKSGTSASLAIGGLRSEDEAHYYCAAWDDSMSGPGYAFGTGTKVTVLRQPKANPTVTLFPPSSEELQANKATLVCLISDFYPGAVTVAWKADGSPVKAGVETTKPSKQSNNKYAASSYLSLTPEQWKSHRSYSCQVTHEGSTVEKTVAPTECS")
"false"
>>> label_class("PP2A1 (Arabidopsis thaliana) (protein) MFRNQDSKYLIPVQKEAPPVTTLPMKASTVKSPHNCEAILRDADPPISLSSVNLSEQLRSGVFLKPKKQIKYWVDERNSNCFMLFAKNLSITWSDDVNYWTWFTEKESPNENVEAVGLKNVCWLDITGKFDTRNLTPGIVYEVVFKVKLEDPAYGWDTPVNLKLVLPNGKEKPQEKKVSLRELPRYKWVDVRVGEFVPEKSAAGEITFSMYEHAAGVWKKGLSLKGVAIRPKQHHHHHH")
"false"
>>> label_class("HMGB1 (Rattus norvegicus), P63159 (protein) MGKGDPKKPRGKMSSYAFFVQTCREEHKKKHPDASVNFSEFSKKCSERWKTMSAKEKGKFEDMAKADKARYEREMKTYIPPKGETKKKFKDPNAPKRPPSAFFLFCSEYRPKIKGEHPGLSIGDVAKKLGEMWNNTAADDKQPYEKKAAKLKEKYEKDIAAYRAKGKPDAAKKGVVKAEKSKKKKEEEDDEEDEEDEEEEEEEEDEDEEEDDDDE")
"true"
>>> label_class("LTL (Lotus tetragonolobus), P19664 (protein) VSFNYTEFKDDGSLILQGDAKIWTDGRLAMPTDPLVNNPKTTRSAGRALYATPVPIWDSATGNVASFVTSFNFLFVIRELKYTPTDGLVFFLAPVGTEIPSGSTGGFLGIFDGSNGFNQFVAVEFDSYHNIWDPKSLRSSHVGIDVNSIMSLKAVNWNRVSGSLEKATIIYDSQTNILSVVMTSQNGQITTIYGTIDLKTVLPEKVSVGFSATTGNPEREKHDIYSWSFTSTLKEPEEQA")
"false"

Now examine the next entry.
Is glycan array binding signal (z-score) at least -0.02? Consider XTP3-B-MRH2 (Homo sapiens), Q96DZ1 (protein) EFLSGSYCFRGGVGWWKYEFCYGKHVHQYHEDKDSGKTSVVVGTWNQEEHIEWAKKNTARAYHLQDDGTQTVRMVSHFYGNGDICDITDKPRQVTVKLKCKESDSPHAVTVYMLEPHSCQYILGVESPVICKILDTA
true
